System: Salmonella typhimurium
Experiment: Induction of mutagenesis in Salmonella typhimurium TA98 at 160 ug/plate by Ames test in presence of rat liver S9 fraction relative to control
Format: toxicity, organism-based
Conditions: salmonella enterica subsp. enterica serovar typhimurium
A collection of compounds and their measured fold change (FC)

query_smiles | fold change (FC)
Nc1ccc(-c2ccccc2Cl)cc1 | 11
Nc1ccc(-c2ccccc2F)cc1 | 26
Nc1ccc(-c2cccc(Cl)c2)cc1 | 47
Nc1ccc(-c2ccc(F)cc2)cc1 | 43
Nc1ccc(-c2ccc(Cl)cc2)cc1 | 54
Nc1ccc(-c2cccc(F)c2)cc1 | 38
Nc1ccc(-c2ccccc2)c(F)c1 | 2
